# TARGET OR SYSTEM: CSF1R (Homo sapiens)
# Sequence (P07333 20-972): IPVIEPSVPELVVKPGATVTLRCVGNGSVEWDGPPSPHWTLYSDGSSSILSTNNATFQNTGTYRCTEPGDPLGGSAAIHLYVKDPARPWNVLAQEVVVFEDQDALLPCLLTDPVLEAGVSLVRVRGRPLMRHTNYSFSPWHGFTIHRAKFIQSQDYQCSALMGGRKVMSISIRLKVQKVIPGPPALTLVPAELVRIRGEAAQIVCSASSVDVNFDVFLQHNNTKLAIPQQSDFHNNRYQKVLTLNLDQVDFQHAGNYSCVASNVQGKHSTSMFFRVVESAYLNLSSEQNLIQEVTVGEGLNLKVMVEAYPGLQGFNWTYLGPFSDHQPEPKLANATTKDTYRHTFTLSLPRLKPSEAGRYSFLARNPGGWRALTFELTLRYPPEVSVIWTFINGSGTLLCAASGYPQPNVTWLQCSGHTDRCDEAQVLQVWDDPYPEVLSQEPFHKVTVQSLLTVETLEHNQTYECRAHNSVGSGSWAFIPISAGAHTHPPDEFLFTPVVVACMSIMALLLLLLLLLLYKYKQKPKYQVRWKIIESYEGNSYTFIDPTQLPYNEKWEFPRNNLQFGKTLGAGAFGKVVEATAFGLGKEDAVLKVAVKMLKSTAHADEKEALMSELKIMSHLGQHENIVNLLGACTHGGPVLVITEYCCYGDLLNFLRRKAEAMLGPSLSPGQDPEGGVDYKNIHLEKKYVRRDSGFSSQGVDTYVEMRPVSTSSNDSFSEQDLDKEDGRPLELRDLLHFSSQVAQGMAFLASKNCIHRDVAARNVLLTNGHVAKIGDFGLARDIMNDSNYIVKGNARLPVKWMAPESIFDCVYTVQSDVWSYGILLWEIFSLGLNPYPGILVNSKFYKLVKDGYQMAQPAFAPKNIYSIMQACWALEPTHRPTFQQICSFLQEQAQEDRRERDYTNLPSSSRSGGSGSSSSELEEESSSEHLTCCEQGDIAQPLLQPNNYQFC
Structures can show the parent of a compound that is named as a salt.
# Lookup of reported Kd keyed by entry
MEASUREMENT LABEL: Kd

| MOLECULE | MEASUREMENT LABEL | MEASURED VALUE |
| --- | --- | --- |
| CC(C)(C)c1cc(NC(=O)Nc2ccc(-c3cn4c(n3)sc3cc(CN5CCCCC5)ccc34)cc2)no1 [Compound D10, hydrochloride] | Kd | 0.01 to 0.1 µM |
| CC(C)(C)c1cc(NC(=O)Nc2ccc(-c3cn4c(n3)sc3cc(C(=O)NCCN5CCCC5)ccc34)cc2)no1 [Compound C21, hydrochloride] | Kd | 0.01 to 0.1 µM |
| CCN(CC)CCNC(=O)c1ccc2c(c1)sc1nc(-c3ccc(NC(=O)Nc4cc(C(C)(C)C)on4)cc3)cn12 [Compound C22, hydrochloride] | Kd | 0.01 to 0.1 µM |
